compounds and their reported kinase still bound, per cent of control
system: KIT (human), P10721 [V559D]; assay: KINOMEscan competition binding; details: compound 10.0 µM
Sequence (P10721 whole entry V559D, looked up): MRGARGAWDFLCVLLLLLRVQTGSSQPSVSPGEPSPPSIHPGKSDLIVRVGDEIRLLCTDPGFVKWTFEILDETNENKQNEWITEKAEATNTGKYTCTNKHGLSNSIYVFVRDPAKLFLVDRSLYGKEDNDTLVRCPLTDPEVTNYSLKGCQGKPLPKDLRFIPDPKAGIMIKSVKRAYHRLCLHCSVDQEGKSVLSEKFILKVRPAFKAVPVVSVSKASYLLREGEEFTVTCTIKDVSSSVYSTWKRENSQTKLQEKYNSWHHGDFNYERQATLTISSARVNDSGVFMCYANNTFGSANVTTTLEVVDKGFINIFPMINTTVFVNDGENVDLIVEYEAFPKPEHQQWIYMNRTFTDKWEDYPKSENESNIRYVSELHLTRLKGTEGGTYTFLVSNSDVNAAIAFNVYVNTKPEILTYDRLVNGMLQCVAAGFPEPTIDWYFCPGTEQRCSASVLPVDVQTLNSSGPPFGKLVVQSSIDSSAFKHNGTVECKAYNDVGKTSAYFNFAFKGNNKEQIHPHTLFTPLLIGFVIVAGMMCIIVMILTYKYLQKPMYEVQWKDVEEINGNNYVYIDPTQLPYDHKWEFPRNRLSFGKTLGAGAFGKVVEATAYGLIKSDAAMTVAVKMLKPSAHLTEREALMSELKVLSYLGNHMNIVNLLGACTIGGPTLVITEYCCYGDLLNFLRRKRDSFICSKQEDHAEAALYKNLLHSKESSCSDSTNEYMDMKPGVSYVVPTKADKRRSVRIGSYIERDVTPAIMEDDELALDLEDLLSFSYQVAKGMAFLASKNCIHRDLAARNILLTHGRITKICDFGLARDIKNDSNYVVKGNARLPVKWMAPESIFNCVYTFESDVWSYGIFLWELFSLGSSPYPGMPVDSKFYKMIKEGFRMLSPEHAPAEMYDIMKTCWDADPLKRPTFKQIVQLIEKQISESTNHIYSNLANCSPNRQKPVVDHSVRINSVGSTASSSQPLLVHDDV
quantity: kinase still bound, per cent of control

mol-smiles | result
CCOc1cc(N2CCC(N3CCCCC3)CC2)ccc1Nc1nc(Nc2ccccc2S(=O)(=O)C(C)C)c2cn[nH]c2n1 | 86%
CCN1CCN(Cc2ccc(NC(=O)c3ccc(C)c(/C=C/c4cnc(Nc5cc(N6CCNCC6)nc(C)n5)cn4)c3)cc2C(F)(F)F)CC1 | 0.05%
COc1cc(N2CCC(N3CCN(C)CC3)CC2)ccc1Nc1ncc(Cl)c(Nc2ccccc2S(=O)(=O)C(C)C)n1 | 0.1%
CCN1CCN(Cc2ccc(NC(=O)c3ccc(C)c(Oc4ccnc5[nH]ccc45)c3)cc2C(F)(F)F)CC1 | 0%
